tested on: Klebsiella aerogenes DSM 30053; experiment: fold change of Putrescine concentration vs plate DMSO controls (fold change (ratio)); higher = more amine produced, active = hit call of the paper (significant change in both replicates, either direction); conditions: incubation time: 27 h, anaerobic, 37 °C
// values below are reported fold change of Putrescine concentration
// no unit string in output, number only

Known results for compounds:
compound="CC(=O)OC[C@H]1O[C@@H]([S-])[C@H](OC(C)=O)[C@@H](OC(C)=O)[C@@H]1OC(C)=O.CCP(CC)CC.[Au+] [Auranofin] (20 µM)" experimental_value=0.89
compound="Cc1ncc([N+](=O)[O-])n1C [Dimetridazole] (20 µM)" experimental_value=1.01
compound="CC(=O)Nc1ccc(O)cc1 [Acetaminophen] (20 µM)" experimental_value=1
compound="Cc1cnc(C(=O)O)c[n+]1[O-] [Acipimox] (20 µM)" experimental_value=0.998

# ---- query compound ----
Exercise: Fill blank: measured fold change of Putrescine concentration of the compound NS(=O)(=O)c1cc2c(cc1Cl)N=C(CSCc1ccccc1)NS2(=O)=O [Benzthiazide] (20 µM) is ____.
Solution: 0.993

* * *

Catalogue of fold change of Cadaverine concentration readings, one per entry.
system: Klebsiella aerogenes DSM 30053; assay: fold change of Cadaverine concentration vs plate DMSO controls (fold change (ratio)); higher = more amine produced, active = hit call of the paper (significant change in both replicates, either direction); details: incubation time: 27 h, anaerobic, 37 °C
Counter-ions that a name gives are not always drawn.
Kindly provide the number alone.

molecule="C[N+](C)(C)CCOC(N)=O [Carbachol chloride] (20 µM)" property="fold change of Cadaverine concentration" experimental_value=1.01
molecule="CCN1CCC[C@H]1CNC(=O)c1c(OC)ccc(Br)c1OC [Remoxipride hydrochloride] (20 µM)" property="fold change of Cadaverine concentration" experimental_value=0.989

Exercise: Returns the measured fold change of Cadaverine concentration for the input molecule. Input: Cc1cc(CC(=O)O)n(C)c1C(=O)c1ccc(Cl)cc1 [Zomepirac sodium salt] (20 µM)
Solution: 0.984

Exercise: I have this molecule here, CN[C@@H]1CCc2[nH]c3ccc(C(N)=O)cc3c2C1 [Frovatriptan succinate] (20 µM) , and I need its recorded fold change of Cadaverine concentration.
Solution: 0.984

Exercise: Which fold change of Cadaverine concentration reading was recorded for the molecule COc1ccc2c(c1)N(C[C@H](C)CN(C)C)c1ccccc1S2 [Methotrimeprazine maleate salt] (20 µM) ?
Solution: 1.02

Exercise: What measured fold change of Cadaverine concentration goes with COc1ccc(-c2ccc3cc(C(=O)O)ccc3c2)cc1C12CC3CC(CC(C3)C1)C2 [Adapalene] (20 µM) ?
Solution: 0.994

Exercise: Look up fold change of Cadaverine concentration: COc1ccc(-c2noc(CC(=O)O)c2-c2ccc(OC)cc2)cc1 [Mofezolac] (20 µM)
Solution: 0.993

Exercise: Query (molecule): Nc1ccc(C(=O)NCC(=O)O)cc1 [Aminohippuric acid] (20 µM) ; field requested: fold change of Cadaverine concentration
Solution: 1.01

Exercise: # input molecule: COc1ccc2[nH]c([S+]([O-])Cc3ncc(C)c(OC)c3C)nc2c1 (stereo unspecified) [Omeprazole] (20 µM) ; wanted: its fold change of Cadaverine concentration
Solution: 1

Exercise: // returns reported fold change of Cadaverine concentration for input CCOC(=O)[C@H](CCc1ccccc1)N[C@@H](C)C(=O)N1[C@H](C(=O)O)C[C@@H]2CCC[C@@H]21 [Ramipril] (20 µM)
Solution: 1.05

Exercise: Entry under review: CC(C)(C)C(=O)OCOC(=O)[C@@H]1N2C(=O)[C@@H](NC(=O)[C@H](N)c3ccccc3)[C@H]2SC1(C)C [Pivampicillin] (20 µM) . Reported fold change of Cadaverine concentration?
Solution: 0.976

Exercise: Fill blank: measured fold change of Cadaverine concentration of the molecule C[C@H](CCC(=O)O)[C@H]1CC[C@H]2[C@@H]3[C@H](O)C[C@@H]4C[C@H](O)CC[C@]4(C)[C@H]3CC[C@]12C [Chenodiol] (20 µM) is ____.
Solution: 1.02

Exercise: If you can, please state the reported fold change of Cadaverine concentration value of Cn1cnc([N+](=O)[O-])c1Sc1ncnc2[nH]cnc12 [Azathioprine] (20 µM) .
Solution: 0.992

Exercise: Data request, read-out fold change of Cadaverine concentration, for Oc1c(Br)cc(Br)c2cccnc12 [Broxyquinoline] (20 µM)
Solution: 0.968

Exercise: fold change of Cadaverine concentration for S=C([S-])NCCNC(=S)[S-].S=C([S-])NCCNC(=S)[S-].[Mn+2].[Zn+2] (20 µM) ?
Solution: 1.07

Exercise: Given COCCOC(=O)C1=C(C)NC(C)=C(C(=O)OC(C)C)C1c1cccc([N+](=O)[O-])c1 (stereo unspecified) [Nimodipine] (20 µM) , state its recorded fold change of Cadaverine concentration.
Solution: 1.01
